Measured values drawn from patent US5710123A for this set.

- Test target: P-selectin (Homo sapiens, UniProt P16109)
- Construct: from tissue; host or cells: outdated human platelet packs from a blood bank
- Sequence (P16109 42-830): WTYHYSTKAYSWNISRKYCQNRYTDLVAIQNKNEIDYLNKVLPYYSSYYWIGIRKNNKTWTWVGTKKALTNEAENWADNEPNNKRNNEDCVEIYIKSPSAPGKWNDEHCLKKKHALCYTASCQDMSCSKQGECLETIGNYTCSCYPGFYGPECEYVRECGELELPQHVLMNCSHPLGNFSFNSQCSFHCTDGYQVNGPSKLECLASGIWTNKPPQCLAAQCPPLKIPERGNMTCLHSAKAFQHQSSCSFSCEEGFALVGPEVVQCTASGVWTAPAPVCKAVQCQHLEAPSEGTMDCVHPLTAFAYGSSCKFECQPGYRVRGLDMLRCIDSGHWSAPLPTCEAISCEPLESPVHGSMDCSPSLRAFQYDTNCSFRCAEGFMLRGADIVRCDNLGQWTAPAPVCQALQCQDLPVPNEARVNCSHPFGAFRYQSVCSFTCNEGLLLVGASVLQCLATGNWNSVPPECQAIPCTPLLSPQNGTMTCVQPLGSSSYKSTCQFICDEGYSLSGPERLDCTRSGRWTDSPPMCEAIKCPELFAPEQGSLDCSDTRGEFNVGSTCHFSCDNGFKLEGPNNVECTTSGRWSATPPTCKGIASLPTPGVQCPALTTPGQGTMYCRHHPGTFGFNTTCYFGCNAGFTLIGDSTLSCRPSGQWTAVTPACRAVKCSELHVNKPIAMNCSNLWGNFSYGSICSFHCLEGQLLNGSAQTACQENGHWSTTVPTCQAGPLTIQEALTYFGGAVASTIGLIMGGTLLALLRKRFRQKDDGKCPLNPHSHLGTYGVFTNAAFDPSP
- Protocol summary: Inhibition of binding of human neutrophils to P-selectin (neutrophil adhesion to purified immobilized P-selectin, myeloperoxidase readout)
- Type: cell-based
- Recorded conditions: P-selectin purified from human platelets, plated at 5 micrograms/mL, peptides tested 1.0 mM to 0.001 mM
pIC50: −log10 of the molar value. Where no end group is shown, it is not given here.
Readout kind: pIC50

Substance | Test target | pIC50
SKKKLHLCY-NH2 [SEQ ID NO: 44, SKKKLHLCY--NH2] | P-selectin (Homo sapiens, UniProt P16109) | 3.68
Ac-HKKKLALCY-NH2 [SEQ ID NO: 9, Ac-HKKKLALCY--NH2] | P-selectin (Homo sapiens, UniProt P16109) | 4.96
SKKKLALIY-NH2 [SEQ ID NO: 35, SKKKLALIY--NH2] | P-selectin (Homo sapiens, UniProt P16109) | 4.37

P = Ac-SKKKAALCY-NH2 [SEQ ID NO: 23, Ac-SKKKAALCY--NH2]
Q = Ac-SKAKLALCY-NH2 [SEQ ID NO: 19, Ac-SKAKLALCY--NH2]
R = PKKKLALCY-NH2 [SEQ ID NO: 16, PKKKLALCY--NH2]
S = SKKKLAPCY-NH2 [SEQ ID NO: 42, SKKKLAPCY--NH2]
T = SRRKLALCY-NH2 [SEQ ID NO: 69, SRRKLALCY--NH2]
Descending sort on pIC50 required. The labels, placed in the requested order, form the answer.
T, Q, R, P, S
(T: 4.85, Q: 4.22, R: 3.99, P: 3.72, S: 3.05)

1 = SKKKLALHY-NH2 [SEQ ID NO: 36, SKKKLALHY--NH2]
2 = LKKKLALCY-NH2 [SEQ ID NO: 13, LKKKLALCY--NH2]
Quick check, higher pIC50 between 1 and 2 ? Give the label of your selection.
2
(2: 4.19, 1: 3.75)
